- Tested on: mouse B16-F10 melanoma cells
- PROTOCOL: Direct adhesion to dried peptide (Example 31)
- Type: cell-based
- MEASUREMENT SETUP: 10 μg of each peptide; one hour; FIG. 20
Where no end group is shown, it is not given here.
METRIC: adhesion of cells to dried peptide

Which adhesion of cells to dried peptide is reported with mouse B16-F10 melanoma cells for this entry: VCTGSC (cysteine pairing not given here) [scrambled peptide control, reference compound] ?
did not promote adhesion

Next substance up: ASVTAR [irrelevant peptide]
did not promote adhesion
